Molecular target: Estrogen receptor (Homo sapiens, UniProt P03372); also: in other assays of this panel Not Active means under 50% inhibition at 10 µM
Sequence (P03372 whole entry): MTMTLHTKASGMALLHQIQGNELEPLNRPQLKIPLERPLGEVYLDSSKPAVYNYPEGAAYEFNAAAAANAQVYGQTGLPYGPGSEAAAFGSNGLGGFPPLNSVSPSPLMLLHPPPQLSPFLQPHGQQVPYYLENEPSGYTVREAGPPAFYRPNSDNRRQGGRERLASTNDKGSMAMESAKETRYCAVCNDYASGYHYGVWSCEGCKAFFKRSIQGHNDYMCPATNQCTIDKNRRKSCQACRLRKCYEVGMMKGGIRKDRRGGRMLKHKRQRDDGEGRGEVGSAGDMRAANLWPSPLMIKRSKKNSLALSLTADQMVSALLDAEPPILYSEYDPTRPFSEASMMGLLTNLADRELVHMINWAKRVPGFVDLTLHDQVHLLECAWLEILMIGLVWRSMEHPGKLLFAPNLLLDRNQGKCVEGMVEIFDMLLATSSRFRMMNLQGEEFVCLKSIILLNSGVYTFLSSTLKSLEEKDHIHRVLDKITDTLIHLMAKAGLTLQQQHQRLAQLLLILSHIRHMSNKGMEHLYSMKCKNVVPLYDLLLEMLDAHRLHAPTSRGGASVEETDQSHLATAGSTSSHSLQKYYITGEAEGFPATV
Conditions: sf9
attribute.measured: IC50

Past entries and their recorded results:
• NC1CCN(c2nc3c(cc2F)c(=O)c(C(=O)O)cn3-c2ccc(F)cc2F)C1 (configuration not stated) [TOSUFLOXACIN] = Not Active
• Cc1ccc(NC(=O)c2ccc(CN3CCN(C)CC3)cc2)cc1Nc1nccc(-c2cccnc2)n1 [IMATINIB] = Not Active
• N#Cc1ccc(C(c2ccc(C#N)cc2)n2cncn2)cc1 [LETROZOLE] = Not Active
• CC(=O)[C@H]1[C@H](C#N)C[C@H]2[C@@H]3CC=C4C[C@@H](O)CC[C@]4(C)[C@H]3CC[C@@]21C [PREGNENOLONE CARBONITRILE] = Not Active
• C[n+]1ccc(-c2cc[n+](C)cc2)cc1.[Cl-].[Cl-] [PARAQUAT DICHLORIDE] = Not Active

Entry CC(C)Cc1ccc([C@@H](C)C(=O)O)cc1 [(R)-IBUPROPHEN] — recorded IC50 = Not Active

Entry CCC(=O)O[C@]1(C(=O)CCl)[C@@H](C)C[C@H]2[C@@H]3CCC4=CC(=O)C=C[C@]4(C)[C@@]3(F)[C@@H](O)C[C@@]21C [CLOBETASOL PROPIONATE] — recorded IC50 = Not Active

----------
Assay: DRUGMATRIX: Sigma2 radioligand binding (ligand: [3H] Ifenprodil)
Assay type: cell membranes, Rattus norvegicus, Wistar, Brain, Membrane
Conditions: Not Active = under 50% inhibition at 10 µM; read-out: Ki
pKi: −log10 of the molar value.
Label 1 when pKi is at or above 7; otherwise label -1.

Consider the following illustrative entries.
- COc1ccc(CCN(C)CCCC(C#N)(c2ccc(OC)c(OC)c2)C(C)C)cc1OC (stereo unspecified): -1
- COc1ccc2cc3[n+](cc2c1OC)CCc1cc2c(cc1-3)OCO2.[Cl-] [BERBERINE CHLORIDE]: 1
- CN(C)CC[C@@H](c1ccc(Cl)cc1)c1ccccn1: -1
- Clc1ccccc1CN1CCc2sccc2C1: -1

# evaluate next
Query: Does the reported pKi for CN(C/C=C/C#CC(C)(C)C)Cc1cccc2ccccc12 fall at or above the 7 mark?
Reply: 1

----------
Target: UniProt P10635
Sequence (P10635 whole entry): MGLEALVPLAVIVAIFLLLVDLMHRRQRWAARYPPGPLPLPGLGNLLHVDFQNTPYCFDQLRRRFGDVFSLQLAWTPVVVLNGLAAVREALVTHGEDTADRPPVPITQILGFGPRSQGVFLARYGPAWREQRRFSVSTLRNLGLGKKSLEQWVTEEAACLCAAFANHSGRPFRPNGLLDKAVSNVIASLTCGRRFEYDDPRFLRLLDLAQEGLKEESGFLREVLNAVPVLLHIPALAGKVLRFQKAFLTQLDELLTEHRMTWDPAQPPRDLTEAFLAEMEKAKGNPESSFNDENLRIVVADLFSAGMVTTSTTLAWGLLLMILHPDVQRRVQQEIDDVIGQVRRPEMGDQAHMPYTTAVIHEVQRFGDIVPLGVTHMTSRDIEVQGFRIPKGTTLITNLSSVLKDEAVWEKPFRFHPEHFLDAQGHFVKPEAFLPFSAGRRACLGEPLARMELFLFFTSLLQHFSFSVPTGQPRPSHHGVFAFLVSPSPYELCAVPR
Conditions: bti-tn-5b1-4
attribute.measured: IC50

* CNC1(c2ccccc2Cl)CCCCC1=O (stereo unspecified) [KETAMINE] | Not Active
* CCN(CC)CCOCCC1=CCC2CC1C2(C)C (stereo unspecified) [MYRTECAINE] | Not Active
* Oc1cccc(O)c1O [PYROGALLOL] | Not Active
* NC(=O)C[S+]([O-])C(c1ccccc1)c1ccccc1 (stereo unspecified) [MODAFINIL] | Not Active
* Brc1c(NC2=NCCN2)ccc2nccnc12 [BRIMONIDINE] | Not Active

Read the next record carefully.
Entry Cc1cccc(C)c1OCC(C)N (stereo unspecified) [MEXILETINE] — recorded IC50 = Not Active

----------
Molecular target: Muscarinic acetylcholine receptor M2 (Homo sapiens); also: in other assays of this panel Not Active means under 50% inhibition at 10 µM
Sequence (P08172 whole entry): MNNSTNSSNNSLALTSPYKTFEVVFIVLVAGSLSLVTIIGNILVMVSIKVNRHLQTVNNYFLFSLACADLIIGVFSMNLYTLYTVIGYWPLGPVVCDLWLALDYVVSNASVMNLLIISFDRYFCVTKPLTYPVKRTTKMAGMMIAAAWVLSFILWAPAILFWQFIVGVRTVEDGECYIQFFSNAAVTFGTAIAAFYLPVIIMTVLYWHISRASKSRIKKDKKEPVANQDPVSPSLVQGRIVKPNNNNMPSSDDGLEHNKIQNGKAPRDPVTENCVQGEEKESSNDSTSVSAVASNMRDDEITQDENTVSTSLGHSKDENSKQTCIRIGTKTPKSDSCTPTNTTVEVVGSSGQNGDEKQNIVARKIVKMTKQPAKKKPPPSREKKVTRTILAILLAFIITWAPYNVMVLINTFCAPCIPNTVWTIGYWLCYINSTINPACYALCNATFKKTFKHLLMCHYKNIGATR
Format: cell membranes, CHO-K1, Membrane
Conditions: read-out: IC50
attribute.measured: IC50 (nM)
Give just the number in nM; leave the unit off.

Past entries and their recorded results:
* CN[C@H]1CC[C@@H](c2ccc(Cl)c(Cl)c2)c2ccccc21 [SERTRALINE] | 2770
* OC(CCCN1CCCCC1)(c1ccccc1)c1ccccc1 [DIPHENIDOL] | 770

Read the next record carefully.
Entry CN(C)CC[C@@H](c1ccc(Cl)cc1)c1ccccn1 [DEXCHLORPHENIRAMINE] — recorded IC50 = 6990

Values were extracted from ChEMBL document CHEMBL1909046.
